List of Plant response rating, Bedstraw values.
system: bedstraw; experiment: Test B pre/postemergence bedstraw; type: in vivo, Galium aparine; details: Rate 250 g/ha, Postemergence; scale of 0 to 10 where 0 is no effect and 10 is complete control
Number only, please.

// solved cases for Plant response rating, Bedstraw follow
Cc1c(-n2c(=O)on(C(=O)N(c3ccccc3)C(C)C)c2=O)ccc2ccccc12    0
CCOC(=O)C(C)N(C(=O)n1oc(=O)n(C2CCCCC2)c1=O)c1ccc(F)cc1 (stereo not drawn)    0

Query for bedstraw: what Plant response rating, Bedstraw does the record show for `CC(C)N(C(=O)n1oc(=O)n(-c2ccc3ccccc3c2)c1=O)c1ccc(Cl)cc1` ?
0

Ref: patent US6737383B1
